// reported t½ for each item listed
Study System: T1, monomeric HLA-A2:NY-ESO-1(156-165) (V at position 165) peptide complex, 2906
T1 construct: also called soluble HLA-A2:NY-ESO-1 peptide complex
Measurement Description: SPR, 25 C, antibody captured, monomeric complex injected;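 further: antibody held on sensor chip via immobilized anti-human or anti-mouse Fc antibody, rate constants derived by fitting sensorgrams to a 1:1 binding model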
The response must be a number in h with no trailing unit.

Consider the worked cases shown below.
{"Binder": "mAb28128P (antibody, human IgG4 S228P, kappa, V domains shown) VH: EVQLVESGGGVVQPGGSLRLSCAASGFIFDDYAMHWVRQVPGKGLEWISLSSGGGGGTYYADPVKGRFTISRDNSKNSLHLQMNSLRAEDTASYYCAKDMVFGVVTPDFFFAMDVWGQGTTVTVSS VL: DIQMTQSPSSLSASVGDRVTITCRASQSISTYLNWYQQKPGKAPKLLIYGASSLQRGVPSRFSGSGSGTDFTLTISSLQPEDFATYYCQQTYSTPPITFGQGTRLEIKR", "Meas Value": 1.04}
{"Binder": "mAb28042P (antibody, human IgG4 S228P, kappa, V domains shown) VH: QLQLQESDPGLVKPSETLSLTCTVSGDSIRNSNYYWGWIRQPPGKGLEWIGSIYFSGRTYFNPSLKSRVTIPVDMSKNQFSLMLNSVTATDTAVYYCARHGGITAAGGFFDYWGQGTLVTVSS VL: DIQMTQSPSSLSASVGDRVTITCQASQDISNYLNWYQQKPGKAPNVLIYDASNLETGVPSRFSGSGSGTDFTFTISSLQPEDFATYYCQQNDNLPLTFGGGTKVEIKR", "Meas Value": 0.967}

Please look at the following binder next.
Report t½ for mAb24958N (antibody, human IgG4 S228P, kappa, V domains shown) VH: QVQLQESGPGLVKPSQTLSLTCTVSGGSIISDGYYWSWIRQHPGKGLEWIGYVDYSGNTYYNPSLKSRIIMSVDTSKNQFSLKLTSVTAADTAVYFCVREGPLRDAFEIWGQGTMVTVSS VL: DIQMTQSPSSLSASVGDRVTITCRTSQSISRYLNWYQQKPGKAPKLLIFAASSLQSGVPSRFSGSGSGADFTLTISSLQPEDFATYYCQQSYSTPPITFGQGTRLEIKR please.
1.09
